Measured IC50 by item
# Tested on: 855422-203-R-J1-PDC spheroids with HUVEC/MSC, viability
# method-notes: Anticancer human tumor 855422-203-R-J1-PDC patient-derived bladder carcinoma cell line growth inhibition [PI3K]
# setup-conditions: curve of first compound; second compound 0.1 µM
# Description: Combinatorial screen of targeted agents with the PI3K inhibitors inavolisib, alpelisib, duvelisib, and copanlisib in multi-cell type tumor spheroids A high-throughput screen of multi-cell type tumor spheroids was designed to identify active combinations of targeted small molecules and PI3K pathway inhibitors. […] Compounds. […] If the clinical Cmax for an agent had not been determined, the highest concentration tested was 10 microM. […]

Worked cases, answers included:
compound	measurement-target	IC50
CCCS(=O)(=O)Nc1ccc(F)c(C(=O)c2c[nH]c3ncc(-c4ccc(Cl)cc4)cc23)c1F + COc1c(OCCCN2CCOCC2)ccc2c3n(c(=NC(=O)c4cnc(N)nc4)nc12)CCN3	855422-203-R-J1-PDC spheroids with HUVEC/MSC, viability	< 31.6 nM
CNC(=O)c1ccc(N2C(=S)N(c3ccc(C#N)c(C(F)(F)F)c3)C(=O)C2(C)C)cc1F + CC(Nc1ccc2c(c1)OCCn1cc(N3C(=O)OCC3C(F)F)nc1-2)C(N)=O	855422-203-R-J1-PDC spheroids with HUVEC/MSC, viability	> 10000 nM

Switching to the query record.
// fetch IC50 for CC1(C)CCC(CN2CCN(c3ccc(C(=O)NS(=O)(=O)c4ccc(NCC5CCOCC5)c([N+](=O)[O-])c4)c(Oc4cnc5[nH]ccc5c4)c3)CC2)=C(c2ccc(Cl)cc2)C1 + COc1c(OCCCN2CCOCC2)ccc2c3n(c(=NC(=O)c4cnc(N)nc4)nc12)CCN3 ; system: 855422-203-R-J1-PDC spheroids with HUVEC/MSC, viability < 31.6 nM

----------
# System: 855422-203-R-J1-PDC spheroids with HUVEC/MSC, viability
# method-notes: Anticancer human tumor 855422-203-R-J1-PDC cell line growth inhibition [PI3K]; active = viability on the fitted dose curve at most 10% of control; inactive = the rest;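 also: agents incubated with spheroids for one week before read-out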
# setup-conditions: second compound 1 µM; first compound 0.00316 µM
Return exactly one item of active, inactive

molecule	label
CCN1CCN(Cc2ccc(Nc3ncc(F)c(-c4cc(F)c5nc(C)n(C(C)C)c5c4)n3)nc2)CC1 + CC(Nc1ccc2c(c1)OCCn1cc(N3C(=O)OCC3C(F)F)nc1-2)C(N)=O	inactive
CCN1CCN(Cc2ccc(Nc3ncc(F)c(-c4cc(F)c5nc(C)n(C(C)C)c5c4)n3)nc2)CC1 + COc1c(OCCCN2CCOCC2)ccc2c3n(c(=NC(=O)c4cnc(N)nc4)nc12)CCN3	active
CC(C)n1nc(-c2ccc3oc(N)nc3c2)c2c(N)ncnc21 + CC(Nc1ccc2c(c1)OCCn1cc(N3C(=O)OCC3C(F)F)nc1-2)C(N)=O	inactive
Cn1ncnc1[C@H]1c2n[nH]c(=O)c3cc(F)cc(c23)N[C@@H]1c1ccc(F)cc1 + COc1c(OCCCN2CCOCC2)ccc2c3n(c(=NC(=O)c4cnc(N)nc4)nc12)CCN3	active
CCN1CCN(Cc2ccc(Nc3ncc(F)c(-c4cc(F)c5nc(C)n(C(C)C)c5c4)n3)nc2)CC1 + Cc1nc(NC(=O)N2CCCC2C(N)=O)sc1-c1ccnc(C(C)(C)C(F)(F)F)c1	inactive

Dear all, I need the recorded test outcome for Cn1ncnc1[C@H]1c2n[nH]c(=O)c3cc(F)cc(c23)N[C@@H]1c1ccc(F)cc1 + CC(Nc1ccc2c(c1)OCCn1cc(N3C(=O)OCC3C(F)F)nc1-2)C(N)=O , thank you. inactive

Status in this test for Cn1ncnc1[C@H]1c2n[nH]c(=O)c3cc(F)cc(c23)N[C@@H]1c1ccc(F)cc1 + CC(Nc1ncnc2nc[nH]c12)c1cc2cccc(Cl)c2c(=O)n1-c1ccccc1 ? inactive
